Measured -log10 GI50 of individual entries
Test system: MDAMB175VII
Experiment: -log10 GI50 (growth inhibition 50%) (-log10(M)); higher = more potent growth inhibition
Form field (numeric): enter value without unit.

Solved cases below.
CCCC(CCC)C(=O)O [Valproic acid]    2.96
Cc1ccc(NC(=O)c2ccc(CN3CCN(C)CC3)cc2)cc1Nc1nccc(-c2cccnc2)n1 [Imatinib]    5.01

Req: Reported -log10 GI50, compound COc1cc([C@@H]2c3cc4c(cc3[C@@H](O[C@@H]3O[C@@H]5CO[C@@H](C)O[C@H]5[C@H](O)[C@H]3O)[C@H]3COC(=O)[C@H]23)OCO4)cc(OC)c1O [Etoposide] : ____
Resp: 4.19
